- Reported conditions: limosilactobacillus reuteri cf48-3a, 12 h, 2 µM
- Description: The drug is tested on Lactobacillus reuteri CF48-3A strain: BEI HM-102 for biotransformation. The drug concentrations were measured before and after a 12-h incubation by liquid-chromatography-coupled mass spectrometry (LC–MS)
Value type: Bacterial Biotransformation

{"columns": ["Compound", "Recorded measurement"],
 "data": [
  ["Fc1ccc([C@@H]2CCNC[C@H]2COc2ccc3c(c2)OCO3)cc1", "Compound NOT metabolized"],
  ["COc1ccccc1OCC(O)COC(N)=O (centres undefined)", "Compound NOT metabolized"],
  ["CN1C(=O)CCS(=O)(=O)C1c1ccc(Cl)cc1 (centres undefined)", "Compound NOT metabolized"]
]}

====

- Assay overview: The drug is tested on Bacteroides sp. WH2 strain: WH2 for biotransformation. The drug concentrations were measured before and after a 12-h incubation by liquid-chromatography-coupled mass spectrometry (LC–MS)
- Reported conditions: bacteroides sp. wh2, 12 h, 2 µM
Non-standard residues stand in square brackets, D forms with d. Residues, ends and D or L forms follow the SMILES beside them. pGlu = O=C1CC[C@@H](C(=O)O)N1; Thz = O=C(O)[C@@H]1CSCN1
Value type: Bacterial Biotransformation

These recorded examples may help you get a feel for the data.
{"columns": ["Compound", "Bacterial Biotransformation"],
 "data": [
  ["CC(=O)OCC(=O)[C@@]12N=C(C)O[C@@H]1C[C@H]1[C@@H]3CCC4=CC(=O)C=C[C@]4(C)[C@H]3[C@@H](O)C[C@@]12C", "Compound metabolized"],
  ["CN(C)CCOC(C)(c1ccccc1)c1ccccn1.O=C(O)CCC(=O)O (configuration not stated) [DOXYLAMINE SUCCINATE]", "Compound NOT metabolized"],
  ["COc1ccc2[nH]c([S+]([O-])Cc3ncc(C)c(OC)c3C)nc2c1 (configuration not stated)", "Compound metabolized"],
  ["C#C[C@]1(OC(C)=O)CC[C@H]2[C@@H]3CCC4=CC(=O)CC[C@@H]4[C@H]3CC[C@@]21C [NORETHINDRONE ACETATE]", "Compound metabolized"],
  ["CC(=O)SCC(Cc1ccccc1)C(=O)NCC(=O)OCc1ccccc1 (configuration not stated)", "Compound metabolized"],
  ["CC(C)NCC(O)c1ccc(NS(C)(=O)=O)cc1 (configuration not stated)", "Compound NOT metabolized"],
  ["C[C@@H](c1ncncc1F)[C@](O)(Cn1cncn1)c1ccc(F)cc1F", "Compound NOT metabolized"],
  ["CN1C(=O)CC(C)(c2ccccc2)C1=O (configuration not stated) [METHSUXIMIDE]", "Compound NOT metabolized"],
  ["O=C1CC[C@@H](C(=O)N2CSC[C@H]2C(=O)O)N1 [PIDOTIMOD] ([pGlu]-[Thz]-OH)", "Compound NOT metabolized"],
  ["O=c1[nH]c2ccccc2n1C1CCN(CCCC(c2ccc(F)cc2)c2ccc(F)cc2)CC1 [PIMOZIDE]", "Compound NOT metabolized"]
]}

Note: attention shifts to another entry.
# Bacterial Biotransformation lookup, item CC(C)[C@H]1CC[C@H](C(=O)N[C@H](Cc2ccccc2)C(=O)O)CC1 [NATEGLINIDE] Compound NOT metabolized

====

- Assay overview: The drug is tested on Bacteroides ovatus strain: ATCC8483 for biotransformation. The drug concentrations were measured before and after a 12-h incubation by liquid-chromatography-coupled mass spectrometry (LC–MS)
- Reported conditions: 2 µM
Non-standard residues stand in square brackets, D forms with d. Residues, ends and D or L forms follow the SMILES beside them. pGlu = O=C1CC[C@@H](C(=O)O)N1; Thz = O=C(O)[C@@H]1CSCN1
Value type: Bacterial Biotransformation

These recorded examples may help you get a feel for the data.
{"columns": ["Compound", "Bacterial Biotransformation"],
 "data": [
  ["CN1CCC(=C2c3ccccc3CCc3cccnc32)CC1.O=C(O)/C=C\\C(=O)O.O=C(O)/C=C\\C(=O)O [AZATADINE MALEATE]", "Compound NOT metabolized"],
  ["COCCCC/C(=N\\OCCN)c1ccc(C(F)(F)F)cc1.O=C(O)/C=C\\C(=O)O [FLUVOXAMINE MALEATE]", "Compound metabolized"],
  ["O=C1CC[C@@H](C(=O)N2CSC[C@H]2C(=O)O)N1 [PIDOTIMOD] ([pGlu]-[Thz]-OH)", "Compound metabolized"],
  ["NC12CC3CC(CC(C3)C1)C2", "Compound NOT metabolized"],
  ["C[C@]12C=CC(=O)C=C1CC[C@@H]1[C@@H]2C(=O)C[C@@]2(C)[C@H]1CC[C@]2(O)C(=O)CO", "Compound NOT metabolized"]
]}

Which Bacterial Biotransformation is listed for `CN1[C@@H]2CC[C@H]1C[C@@H](OC(=O)c1c[nH]c3ccccc13)C2` ? Compound NOT metabolized

Entry C[N+]12CCC(CC1)C(OC(=O)C(O)(c1ccccc1)c1ccccc1)C2.[Br-] (stereo not drawn) [CLIDINIUM BROMIDE] : reported Bacterial Biotransformation = ? Compound NOT metabolized

Which Bacterial Biotransformation is reported for this compound? `COc1ccc(/C=C/C(=O)Nc2ccccc2C(=O)O)cc1OC` Compound metabolized

====

- Assay overview: The drug is tested on Bacteroides fragilis strain: HMW615 for biotransformation. The drug concentrations were measured before and after a 12-h incubation by liquid-chromatography-coupled mass spectrometry (LC–MS)
- Reported conditions: 2 µM
Non-standard residues stand in square brackets, D forms with d. Residues, ends and D or L forms follow the SMILES beside them. pGlu = O=C1CC[C@@H](C(=O)O)N1; Thz = O=C(O)[C@@H]1CSCN1
Value type: Bacterial Biotransformation

Below, each entry is followed by its recorded Bacterial Biotransformation result.
{"columns": ["Molecule", "Recorded measurement"],
 "data": [
  ["CN1CCc2cccc3c2[C@H]1Cc1ccc(O)c(O)c1-3", "Compound NOT metabolized"],
  ["CCN(CC)C(=O)/C(C#N)=C/c1cc(O)c(O)c([N+](=O)[O-])c1", "Compound metabolized"],
  ["C[C@]12CCC(=O)C=C1[C@@H]1C[C@@H]1[C@H]1[C@@H]3[C@@H]4C[C@@H]4[C@@]4(CCC(=O)O4)[C@@]3(C)CC[C@@H]12", "Compound metabolized"],
  ["O=C1CC[C@@H](C(=O)N2CSC[C@H]2C(=O)O)N1 [PIDOTIMOD] ([pGlu]-[Thz]-OH)", "Compound metabolized"],
  ["COCCCC/C(=N\\OCCN)c1ccc(C(F)(F)F)cc1.O=C(O)/C=C\\C(=O)O [FLUVOXAMINE MALEATE]", "Compound NOT metabolized"],
  ["COc1ccc2[nH]c([S+]([O-])Cc3ncc(C)c(OC)c3C)nc2n1 (centres undefined)", "Compound metabolized"]
]}

So what does the record say about Bacterial Biotransformation for `C[C@]12C=CC(=O)C=C1CC[C@@H]1[C@@H]2C(=O)C[C@@]2(C)[C@H]1CC[C@]2(O)C(=O)CO` ? Compound NOT metabolized

State the recorded Bacterial Biotransformation for this entry: CC[C@@H](CO)NC(=O)[C@@H]1C=C2c3cccc4c3c(cn4C)C[C@H]2N(C)C1.O=C(O)/C=C\C(=O)O [METHYSERGIDE MALEATE] Compound NOT metabolized

Recorded Bacterial Biotransformation of O=C(O)COCCN1CCN(C(c2ccccc2)c2ccc(Cl)cc2)CC1 (centres undefined) , please. Compound metabolized

Fill in: Bacterial Biotransformation of `N[C@@H](Cc1ccc(N(CCCl)CCCl)cc1)C(=O)O` is ___ Compound metabolized

Bacterial Biotransformation lookup needed for CS(=O)(=O)O.O.O.O.O=C1Cc2cc(CCN3CCN(c4nsc5ccccc45)CC3)c(Cl)cc2N1 [ZIPRASIDONE MESYLATE] , thanks. Compound NOT metabolized

Recorded Bacterial Biotransformation of `CC[C@H](C)C(=O)O[C@H]1C[C@@H](C)C=C2C=C[C@H](C)[C@H](CC[C@@H]3C[C@@H](O)CC(=O)O3)[C@H]21` , please. Compound metabolized

Bench note: what Bacterial Biotransformation did CCOc1ccc2nc(S(N)(=O)=O)sc2c1 [ETHOXZOLAMIDE] show? Compound NOT metabolized

I'd like to know its Bacterial Biotransformation. The molecule in question is CCOC(=O)[C@H](CCc1ccccc1)N[C@@H](C)C(=O)N1CCC[C@H]1C(=O)O.O=C(O)/C=C\C(=O)O [ENALAPRIL MALEATE] Compound NOT metabolized

Which Bacterial Biotransformation value belongs to CC(=O)CC(c1ccccc1)c1c(O)c2ccccc2oc1=O (centres undefined) ? Compound metabolized

Which Bacterial Biotransformation value belongs to `CN1CCN(C(=O)O[C@H]2c3nccnc3C(=O)N2c2ccc(Cl)cn2)CC1` ? Compound NOT metabolized

# get_value(readout='Bacterial Biotransformation', item= `N#Cc1ccc2[nH]cc(CCCCN3CCN(c4ccc5oc(C(N)=O)cc5c4)CC3)c2c1` ) Compound metabolized

Which Bacterial Biotransformation is listed for C#C[C@]1(OC(C)=O)CC[C@H]2[C@@H]3CCC4=C[C@@H](OC(C)=O)CC[C@@H]4[C@H]3CC[C@@]21C [ETHYNODIOL DIACETATE] ? Compound NOT metabolized

I am curious: what Bacterial Biotransformation value has been reported for CC(C)N(CCC(C(N)=O)(c1ccccc1)c1ccccn1)C(C)C.O=P(O)(O)O (centres undefined) [DISOPYRAMIDE PHOSPHATE] ? Compound NOT metabolized

Query (molecule): CC(C)NCC(O)c1ccc(NS(C)(=O)=O)cc1 (centres undefined) ; field requested: Bacterial Biotransformation Compound metabolized

Data credit: ChEMBL document CHEMBL5303573
